Below, each of the binders is paired with its reported Maximum inhibition rate (%) value.
system.tested: T1, Human VEGFA165 (human, UniProt P15692-4 27-191)
T1 construct: treated as the same molecule; also called antigen VEGFA
procedure.text: competition ELISA on coated VEGFA, competitor VEGFR2-ECD-Fc 2 nM

| binder | Maximum inhibition rate (%) |
| --- | --- |
| V1-SA3 (VHH, Humanized V1) VHH: EVQLVESGGGLVQPGGSLRLSCAASGRTFSSYTMGWFRQAPGKEREFVVAISKGGYKYDSVSLEARFTISRDNAKNTVYLQMNSLRAEDTAVYYCAATRAYGSSRLRLADTYEYWGQGTLVTVSS | 93.5 |
| V13-4m (VHH, Humanized V13) VHH: EVQLVESGGGLVQPGGSLRLSCAASGRTFTSYTMGWFRQAPGKEREFVVAISKGGYKYDAVSLEARFTISRDNAKNTVYLQMNSLRPEDTAVYYCAGTRAYGSSRLRLADTYEYWGQGTLVTVSS | 89.2 |
| V13-2m (VHH, Humanized V13 (CDR graft on humanized V1 frameworks)) VHH: EVQLVESGGGLVQPGGSLRLSCAASGRTFTSYTMGWFRQAPGKEREFVVAISKGGYKYDAVSLEARFTISRDNSKNTVYLQMNSLRPEDTAVYYCAGTRAYGSSRLRLADTYEYWGQGTLVTVSS | 88.9 |
| V43-4m (VHH, Humanized V43) VHH: EVQLVESGGGLVQPGGSLRLSCAASGRTFTSYTMGWFRQAPGKEREFVVAISKGGYKYDSVSLEARFTISRDNAKNTVYLQMNSLRPEDTAVYYCAGTRAYGSSRLRLANTYEYWGQGTLVTVSS | 89.3 |
| V1-com-78 (VHH, Humanized V1) VHH: EVQLVESGGGLVQPGGSLRLSCAASGRTFSSYTMGWFRQAPGKEREFVVAISKGGYKYDSVSLEARFTISRDNSKNTVYLQMNSLRAEDTAVYYCAATRAYGSSRLRLADTYEYWGQGTLVTVSS | 93.7 |
| V15-2m (VHH, Humanized V15) VHH: EVQLVESGGGLVQPGGSLRLSCAASGRTFASYTMGWFRQAPGKEREFVVAISKGGYKYDSVSLEARFTISRDNSKNTVYLQMNSLRPEDTAVYYCAGTRAYGSSRLRLAETYEYWGQGTLVTVSS | 84.8 |
| V1 (VHH, also called candidate antibody V1; antibody V1) VHH: QLQLVESGGGSVQPGGSLRLSCEVSGRTFSSYTMGWFRQAPGKEREFVVAISKGGYKYDSVSLEARFTISKDNTKNTVYLQMNSLKPEDTAVYYCAATRAYGSSRLRLADTYEYWGQGTQVTVSS | 95 |
| V15-4m (VHH, Humanized V15) VHH: EVQLVESGGGLVQPGGSLRLSCAASGRTFASYTMGWFRQAPGKEREFVVAISKGGYKYDSVSLEARFTISRDNAKNTVYLQMNSLRPEDTAVYYCAGTRAYGSSRLRLAETYEYWGQGTLVTVSS | 87.2 |
| V15 (VHH, Purified with C-terminal GGGGS-6×His; also called candidate antibody V15) VHH: QLQLVESGGGSVQPGGSLRLSCEVSGRTFASYTMGWFRQAPGKEREFVVAISKGGYKYDSVSLEARFTISKDNTKNTVYLQMNSLKPEDTAVYYCAGTRAYGSSRLRLAETYEYWGQGTQVTVSS | 71.6 |
| V1-4m (VHH, Humanized V1) VHH: EVQLVESGGGLVQPGGSLRLSCAASGRTFSSYTMGWFRQAPGKEREFVVAISKGGYKYDSVSLEARFTISRDNAKNTVYLQMNSLRPEDTAVYYCASTRAYGSSRLRLADTYEYWGQGTLVTVSS | 93 |

Where do these numbers come from? They come from patent EP4582447A1.
